# IC50 per record follows
molecular target: TRIP8b-HCN1c40 (Homo sapiens (Human)); assay: TRIP8b-HCN1c40 AlphaScreen assay; assay type: binding; conditions: activity ranges; read-out: TRIP8b-HCN1c40 Alphascreen IC50 activity
Sequence (Q8IYB4 265-626): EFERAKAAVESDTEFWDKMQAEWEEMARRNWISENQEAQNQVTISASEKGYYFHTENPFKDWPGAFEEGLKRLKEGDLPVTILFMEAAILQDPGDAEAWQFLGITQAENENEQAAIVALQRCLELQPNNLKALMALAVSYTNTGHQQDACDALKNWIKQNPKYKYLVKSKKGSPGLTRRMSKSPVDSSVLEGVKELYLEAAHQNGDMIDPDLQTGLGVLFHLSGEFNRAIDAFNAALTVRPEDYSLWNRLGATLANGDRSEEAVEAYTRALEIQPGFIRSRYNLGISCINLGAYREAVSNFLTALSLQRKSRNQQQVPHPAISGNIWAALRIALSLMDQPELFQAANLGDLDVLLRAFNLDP
MEASURED QUANTITY: IC50

1. CN1CCN(Cc2ccc(-c3ccc(C(F)(F)F)cc3)cc2OCC(=O)NCc2ccc(Cl)cc2)CC1 | 2 to 5 µM
2. CN1CCN(Cc2cc(-c3ccc(N)cc3)ccc2OCC(=O)Nc2ccc(Cl)c(Cl)c2)CC1 | 1 to 2 µM
3. CN1CCN(Cc2cc(Oc3ccc(F)cc3)ccc2OCC(=O)NCc2ccc(Cl)cc2)CC1 | 5 to 10 µM
4. CNC(=O)c1ccc(NC(=O)COc2ccc(-c3cccc(C)c3)cc2CN2CC[C@H](N)C2)cc1 | 20 to 40 µM
5. CN1CCN(Cc2cc(-c3ccc(Cl)c(Cl)c3)ccc2OCC(=O)Nc2ccc3ncsc3c2)CC1 | < 1 µM
6. CN1CCN(Cc2cc(-c3ccc(Cl)c(Cl)c3)ccc2OCC(=O)NC2CCc3ccccc32)CC1 (centres unmarked) | 1 to 2 µM
7. Cc1ccc(NC(=O)COc2ccc(-c3ccc(Cl)c(Cl)c3)cc2CN2CCN(C)CC2)cc1 | 1 to 2 µM
8. CN1CCN(Cc2cc(-c3cc(Cl)cc(Cl)c3)ccc2OCC(=O)NCc2ccc(Cl)c(Cl)c2)CC1 | < 1 µM
9. CN1CCN(Cc2cc(-c3ccc(Cl)c(Cl)c3)ccc2OCC(=O)NCCc2ccccc2)CC1 | 1 to 2 µM
10. CN1CCN(Cc2cc(-c3ccc(Cl)cc3)ccc2OCCNS(=O)(=O)c2ccc(Cl)cc2)CC1 | 1 to 2 µM
11. Cc1ccc(-c2ccc(CN3CCN(C)CC3)c(OCC(=O)NCc3ccc(Cl)cc3)c2)cc1 | 1 to 2 µM
12. CC(C)c1ccc(-c2ccc(OCC(=O)NCc3ccc(Cl)cc3)c(CN3CCNCC3)c2)cc1 | 5 to 10 µM
13. CN1CCN(Cc2ccc(-c3ccc(Cl)cc3)cc2OCC(=O)NCc2ccc(Cl)cc2)CC1 | 1 to 2 µM
14. CN1CCN(Cc2cc(-c3ccc(Cl)c(Cl)c3)ccc2OCC(=O)NCc2ccccc2Cl)CC1 | < 1 µM
15. Cc1ccc([C@@H](C)NC(=O)C(C)Oc2ccc(-c3cc(Cl)cc(Cl)c3)cc2CN2CCN(C)CC2)cc1 (some centres unmarked) | < 1 µM
16. C=Cc1ccccc1NC(=O)COc1ccc(-c2ccc(Cl)c(Cl)c2)cc1CN1CCN(C)CC1 | 1 to 2 µM
17. CC(Oc1ccc(-c2ccc(O)cc2)cc1CN1CCN(C)CC1)C(=O)NCc1ccc(Cl)cc1 (centres unmarked) | 10 to 20 µM
